Cited source for all entries: patent US12077503B2

system: sedge, umbrella (small-flower umbrella sedge, Cyperus difformis); assay: Test C flooded paddy test; format: in vivo; conditions: Flood, 62 g ai/ha; 0 is no effect, 100 is complete control
Below, each entry is listed alongside its reported Plant response rating (scale of 0 to 100), Sedge, Umbrella.
Form: value (number only, do not type unit).

>  <Compound>
CN1CC(c2cc(F)cc(F)c2)C(C(=O)Nc2ccccc2F)C1=O (stereo not shown) [Compound 643]

>  <Assayed Target>
sedge, umbrella (small-flower umbrella sedge, Cyperus difformis)

>  <Value>
0

$$$$
>  <Compound>
O=C1NCC(c2cccc(OC(F)(F)C(F)F)c2)C1C(=O)Nc1cccc(F)c1F (racemic) [Compound 697]

>  <Assayed Target>
sedge, umbrella (small-flower umbrella sedge, Cyperus difformis)

>  <Value>
0

$$$$
>  <Compound>
CN1CC(c2cccc(F)c2)C(C(=O)Nc2ccc(F)cc2F)C1=O (stereo not shown) [Compound 633]

>  <Assayed Target>
sedge, umbrella (small-flower umbrella sedge, Cyperus difformis)

>  <Value>
0

$$$$

Okay, next one:
[ask] Tell us which Plant response rating (scale of 0 to 100), Sedge, Umbrella value is on record for CN1C[C@H](c2ccc(F)c(F)c2)[C@@H](C(=O)Nc2ccccc2F)C1=O [Compound 596]
[reply] 0
